system: Phytophthora infestans; assay type: in vivo; details: Tomato Late Blight; concentration 10 ppm
property measured: TLB (Fungicidal Activities, C.V.) (%)
Please state the figure in %; there is no need to write the unit.

# example entries with known answers
>>> observed("CNC(=O)/C(=N/OC)c1ccccc1CON=C(C)c1cccc(OC(F)=Cc2ccccc2)c1")
88
>>> observed("CO/N=C(/C(=O)OC)c1ccccc1CON=C(C)c1cccc(OC(F)=Cc2ccccc2)c1")
90
>>> observed("CO/C=C(/C(=O)OC)c1ccccc1CON=C(C)c1cccc(OC(F)=Cc2ccccc2)c1")
68

Consider the record given below.
// TLB (Fungicidal Activities, C.V.) lookup, molecule = "COC=C(C(=O)OC)c1ccccc1CON=C(C)c1cccc(OC(F)=Cc2cccc(C)c2)c1" , result: 25

###

tested on: Pyricularia oryzae Carvara KA301; type: in vivo; conditions: 2 ppm
property measured: Fungicidal Activities RCV (C.V.) (%)
Please state the figure in %; there is no need to write the unit.

# example entries with known answers
>>> observed("CNC(=O)C(=NOC)c1ccccc1CON=C(C)c1cccc(OC(F)=C(c2ccc(F)cc2)C(F)(F)F)c1")
100
>>> observed("CNC(=O)C(=NOC)c1ccccc1CON=C(C)c1cccc(OC(F)=C(c2ccc(C)cc2)C(F)(F)F)c1")
100
>>> observed("CON=C(C(=O)OC)c1ccccc1CON=C(C)c1cccc(OC(F)=C(c2ccc(OC)cc2)C(F)(F)F)c1")
98
>>> observed("CCc1ccc(C(=C(F)Oc2cccc(C(C)=NOCc3ccccc3C(=NOC)C(=O)NC)c2)C(F)(F)F)cc1")
100
>>> observed("CON=C(C(=O)OC)c1ccccc1CON=C(C)c1cccc(OC(F)=C(c2cccc(C)c2)C(F)(F)F)c1")
86

// Fungicidal Activities RCV (C.V.) lookup, compound = "CON=C(C(=O)OC)c1ccccc1CON=C(C)c1cccc(OC(F)=C(c2ccc(C)c(C)c2)C(F)(F)F)c1" , result: 83

// Fungicidal Activities RCV (C.V.) lookup, compound = "CON=C(C(=O)OC)c1ccccc1CON=C(C)c1cccc(OC(F)=C(c2cccc(F)c2)C(F)(F)F)c1" , result: 95

###

tested on: Erysiphae graminis; assay: Fungicidal activity against Barley Powdery Mildew (BPM) disease; assay type: in vivo; details: Barley Powdery Mildew; concentration 2 ppm
# BPM (Fungicidal Activities, C.V.) annotations
Please state the figure in %; there is no need to write the unit.

# example entries with known answers
>>> observed("CNC(=O)C(=NOC)c1ccccc1CON=Cc1cccc(OC(F)=C(c2ccc(F)cc2)C(F)(F)F)c1")
33
>>> observed("COC=C(C(=O)OC)c1ccccc1CON=Cc1cccc(OC(F)=C(c2cccc(C)c2)C(F)(F)F)c1")
80
>>> observed("CNC(=O)C(=NOC)c1ccccc1CON=C(C)c1cccc(OC(F)=Cc2cccc(OC)c2)c1")
100
>>> observed("CNC(=O)C(=COC)c1ccccc1CON=C(C)c1cccc(OC(F)=Cc2cccc(Cl)c2)c1")
0
>>> observed("CCc1ccc(C=C(F)Oc2cccc(C(C)=NOCc3ccccc3C(=NOC)C(=O)OC)c2)cc1")
99
>>> observed("COC=C(C(=O)OC)c1ccccc1CON=Cc1cccc(OC(F)=C(c2ccc(C)cc2)C(F)(F)F)c1")
98

// BPM (Fungicidal Activities, C.V.) lookup, compound = "COC=C(C(=O)OC)c1ccccc1CON=Cc1cccc(OC(F)=Cc2ccc(OC)cc2)c1" , result: 55

// BPM (Fungicidal Activities, C.V.) lookup, compound = "COC=C(C(=O)OC)c1ccccc1CON=C(C)c1cccc(OC(F)=C(c2ccccc2)C(F)(F)F)c1" , result: 100

// BPM (Fungicidal Activities, C.V.) lookup, compound = "COC=C(C(=O)OC)c1ccccc1CON=Cc1cccc(OC(F)=Cc2ccc(Cl)cc2)c1" , result: 99
